Source: paper PMC8789040

- Target Under Test: L7Ae (Archaeoglobus fulgidus, UniProt O29494 2-119)
- Sequence (O29494 2-119): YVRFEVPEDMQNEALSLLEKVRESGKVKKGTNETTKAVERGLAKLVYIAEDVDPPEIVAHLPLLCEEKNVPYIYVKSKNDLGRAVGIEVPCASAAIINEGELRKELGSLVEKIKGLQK
- Run Description: SPR (Biacore T200, RNA captured, protein analyte); SPR running buffer: 10 mM HEPES pH 7.4, 150 mM NaCl, 0.05% Surfactant P20, 1 mM MgCl2, 0.25 mM TCEP, 0.1 mg/ml BSA, 25 ug/ml yeast tRNA, 25 C; RNA captured by its 3' docking sequence on biotinylated 2'-OMe RNA
- Condition Parameters: protein: recombinant; tags: N-term Twin-Strep-tag; C-term 6xHis
Value Type: binding result

binder="CS1-M2c (structured_RNA) RNA: GGUGGCAGAGAAAGGCGAAAGCCUUGUGUGGCCAUCAAAUCGACGAAAGACACAGAACG" value_type="binding result" endpoint_value=binds
binder="CS1-M3 (structured_RNA) RNA: GGUGGCAGUGAAAGGCGAAAGCCUUGUUAGGCCAUCAAAUCGACGAAAGACACAGAACG" value_type="binding result" endpoint_value="no binding"
binder="CS2-M2 (structured_RNA) RNA: GGAUGCAGCGAACGAAAGUUCCAUGACGCAUCCAAAUCGACGAAAGACACAGAACG" value_type="binding result" endpoint_value="no binding"
binder="CS1-M2 (structured_RNA) RNA: GGUGGCAUAGAAAGGCGAAAGCCUUGUGUGGCCAUCAAAUCGACGAAAGACACAGAACG" value_type="binding result" endpoint_value="no binding"
binder="CS2-M1 (structured_RNA) RNA: GGAUGCAAAGAACGAAAGUUCCAUGACGCAUCCAAAUCGACGAAAGACACAGAACG" value_type="binding result" endpoint_value=binds
